target: GST tagged LXRbeta LBD (ligand binding domain) (Homo sapiens, UniProt P55055)
Construct: purchased Invitrogen pv4658.pps
Sequence (P55055 222-460 limits assumed): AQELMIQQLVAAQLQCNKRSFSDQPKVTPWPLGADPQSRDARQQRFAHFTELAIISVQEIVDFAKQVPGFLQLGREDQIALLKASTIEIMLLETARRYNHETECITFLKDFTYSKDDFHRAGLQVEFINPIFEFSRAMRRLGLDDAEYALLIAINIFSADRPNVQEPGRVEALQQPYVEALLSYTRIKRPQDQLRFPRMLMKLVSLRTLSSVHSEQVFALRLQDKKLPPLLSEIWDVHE
assay_comment: LanthaScreen TR-FRET Liver X Receptor Coactivator Assay, LXR beta-LBD (co-activator recruitment; IP and % Emax relative to T0901317)
Type: biochemical
measurement_setup: efficacy at max dose in relation to reference T0901317, LXR beta-LBD; read-out: LXR beta actiivty at max dose (%)
Recorded Emax values for a group of molecules are listed next.
Just the number please, in %, no unit attached.

// below: answered molecules
{"molecule": "CN(C)C(=O)c1ccc(N2CCC(F)(CCCN(C)C(=O)[C@](O)(c3ccccc3)C(F)(F)F)CC2)cc1Cl [Example 12-1]", "result_unit": "%", "Emax": 44}
{"molecule": "COc1cccc([C@@](O)(C(=O)N(C)CC[C@H]2CC23CCN(c2ccc(C(=O)NC(C)C)c(Cl)c2)CC3)C(F)(F)F)c1 [Example 7-10]", "result_unit": "%", "Emax": 58}
{"molecule": "CN(C)C(=O)c1ccc(N2CCC(CCCN(C)C(=O)[C@](N)(c3ccccc3)C(F)(F)F)CC2)nc1Cl [Example 1-29]", "result_unit": "%", "Emax": 51}
{"molecule": "CN(C)C(=O)c1ccc(N2CCC([C@H]3C[C@H]3CN(C)C(=O)[C@](O)(c3cc(Cl)cc(Cl)c3)C(F)(F)F)CC2)nc1Cl [Example 15-6]", "result_unit": "%", "Emax": 29}
{"molecule": "COc1cccc([C@@](O)(C(=O)N(C)C[C@@H]2C[C@@H]2C2CCN(c3ccc(C(=O)N(C)C)c(Cl)n3)CC2)C(F)(F)F)c1 [Example 15-3]", "result_unit": "%", "Emax": 58}
{"molecule": "CN(C)C(=O)c1ccc(N2CCC3(CC2)C[C@@H]3CCN(C)C(=O)[C@](O)(c2ccccc2)C(F)(F)F)cc1Cl [Example 7-5]", "result_unit": "%", "Emax": 68}
{"molecule": "CN(C)C(=O)c1ccc(N2CCC(C)(CCCN(C)C(=O)[C@](O)(c3ccccc3)C(F)(F)F)CC2)nc1Cl [Example 9-2]", "result_unit": "%", "Emax": 47}
{"molecule": "CN(C)C(=O)c1ccc(N2CCC(CCCNC(=O)[C@](O)(c3cccc(OC(F)(F)F)c3)C(F)(F)F)CC2)nc1Cl [Example 5-12]", "result_unit": "%", "Emax": 40}

Please look at the following molecule next.
Challenge: What value of measured Emax is listed for CC(C)C(O)(C(=O)NCCCC1CCN(c2ccc(C(=O)N(C)C)c(Cl)n2)CC1)C(F)(F)F (stereo not shown) [Example 5-7] ?
Response given: 106

---

Recorded Emax values for a group of molecules are listed next.
target: GST tagged LXRalpha LBD (ligand binding domain) (Homo sapiens, UniProt Q13133)
Construct: purchased Invitrogen pv4655
Sequence (Q13133 209-447 limits assumed): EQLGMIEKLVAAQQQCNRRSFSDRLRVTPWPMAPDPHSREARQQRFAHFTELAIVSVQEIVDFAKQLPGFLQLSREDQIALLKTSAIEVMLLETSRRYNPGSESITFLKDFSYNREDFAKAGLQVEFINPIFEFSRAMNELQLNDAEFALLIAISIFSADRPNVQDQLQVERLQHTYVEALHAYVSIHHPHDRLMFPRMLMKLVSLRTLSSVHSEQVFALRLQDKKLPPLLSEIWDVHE
assay_comment: LanthaScreen TR-FRET Liver X Receptor Coactivator Assay, LXR alpha-LBD (co-activator recruitment; IP and % Emax relative to T0901317)
Format: biochemical
measurement_setup: efficacy at max dose in relation to reference T0901317, LXR alpha-LBD; read-out: LXR alpha actiivty at max dose (%)
Just the number please, in %, no unit attached.

// below: answered molecules
{"molecule": "CN(C)C(=O)c1ccc(N2CCC([C@H]3C[C@H]3CN(C)C(=O)[C@](O)(c3cccc(C(F)(F)F)c3)C(F)(F)F)CC2)nc1Cl", "reported_metric": "Emax", "number": 11}
{"molecule": "CN(C)C(=O)c1ccc(N2CCC(CC3CC(NC(=O)[C@](O)(c4ccccc4)C(F)(F)F)C3)CC2)nc1Cl (stereo partly drawn)", "reported_metric": "Emax", "number": 28}
{"molecule": "CN(C)C(=O)c1ccc(N2CCC([C@@H]3C[C@H]3CN(C)C(=O)[C@](O)(c3ccccc3)C(F)(F)F)CC2)cc1Cl", "reported_metric": "Emax", "number": 0}

Challenge: What value of measured Emax is listed for CNC(=O)c1ccc(N2CCC3(CC2)CC(CN(C)C(=O)[C@](O)(c2cccc(OC)c2)C(F)(F)F)C3)nc1Cl ?
Response given: 8

Challenge: Ok, now CN(C)C(=O)c1ccc(N2CCC3(CC2)CC3CCCN(C)C(=O)[C@](O)(c2ccccc2)C(F)(F)F)cc1Cl (stereo partly drawn)
Response given: 0

Challenge: Ok, now COc1cccc([C@@](O)(C(=O)N(C)CC2CC(C3CCN(c4ccc(C(=O)N(C)C)c(Cl)n4)CC3)C2)C(F)(F)F)c1 (stereo partly drawn)
Response given: 36

---

target: GST tagged LXRalpha LBD (ligand binding domain) (Homo sapiens)
Construct: purchased Invitrogen pv4655
assay_comment: LanthaScreen TR-FRET Liver X Receptor Coactivator Assay, LXR alpha-LBD (co-activator recruitment; IP and % Emax relative to T0901317)
Type: biochemical
measurement_setup: efficacy at max dose in relation to reference T0901317, LXR alpha-LBD; read-out: LXR alpha actiivty at max dose (%)
Please use the following Emax ranges when assigning a class: group A: < 4%; group B: ≥ 4% and < 8%; group C: ≥ 8%

{"molecule": "CN(C)C(=O)c1ccc(N2CCC(CCCN(C)C(=O)[C@@](O)(c3cc(F)cc(Cl)c3)C(F)(F)F)CC2)nc1Cl", "target": "GST tagged LXRalpha LBD (ligand binding domain) (Homo sapiens)", "label": "group A"}
{"molecule": "COc1cccc([C@](O)(C(=O)N(C)CCCC2CCN(c3ccc(C(=O)N(C)C)c(Cl)n3)CC2)C(F)(F)F)c1", "target": "GST tagged LXRalpha LBD (ligand binding domain) (Homo sapiens)", "label": "group A"}
{"molecule": "COc1cccc([C@@](O)(C(=O)N(C)CCCC2CCN(c3ccc(C(=O)NC4CC4)c(Cl)n3)CC2)C(F)(F)F)c1", "target": "GST tagged LXRalpha LBD (ligand binding domain) (Homo sapiens)", "label": "group B"}

Challenge: Quick check: band for CN(C)C(=O)c1ccc(N2CCC(CCCN(C)C(=O)[C@](O)(c3ccccc3)C3CC3)CC2)nc1Cl
Response given: group C

Challenge: Ok, now COc1cccc([C@@](O)(C(=O)N(C)CC(F)CC2CCN(c3ccc(C(=O)N(C)C)c(Cl)n3)CC2)C(F)(F)F)c1 (stereo partly shown)
Response given: group B

Challenge: Ok, now CN(C)C(=O)c1ccc(N2CCC(CCCNC(=O)[C@@]3(c4ccccc4)CCCO3)CC2)nc1Cl
Response given: group B

---

Recorded log10 of EC50 values for a group of molecules are listed next.
target: GST tagged LXRbeta LBD (ligand binding domain) (Homo sapiens, UniProt P55055)
assay_comment: LanthaScreen TR-FRET Liver X Receptor Coactivator Assay, LXR beta-LBD (co-activator recruitment; IP and % Emax relative to T0901317)
measurement_setup: Inflection Point of co-activator recruitment, LXR beta-LBD, TR-FRET
Log scale reminder: EC50 in nM, then log10 taken.

// below: answered molecules
{"molecule": "COc1cccc([C@@](O)(C(=O)N(C)CC[C@H]2CC23CCN(c2ccc(C(=O)N(C)C)c(Cl)c2)CC3)C(F)(F)F)c1", "log10 of EC50": 1.32}
{"molecule": "CN(C)C(=O)c1ccc(N2CCC3(CC2)CC3CCN(C)C(=O)[C@](O)(c2cccc(OC(F)(F)F)c2)C(F)(F)F)cc1Cl (stereo in doubt)", "log10 of EC50": 1.30}
{"molecule": "CN(C)C(=O)c1ccc(N2CCC(CCCCN(C)C(=O)C(O)(c3ccccc3)C(F)(F)F)CC2)cc1Cl (stereo not shown)", "log10 of EC50": 2.08}
{"molecule": "CNC(=O)c1ccc(N2CCC3(CC2)CC3CCN(C)C(=O)[C@](O)(c2cccc(OC)c2)C(F)(F)F)nc1Cl (stereo in doubt)", "log10 of EC50": 1.56}
{"molecule": "CN(C)C(=O)c1ccc(N2CCC(CCCNC(=O)C3(c4ccccc4)CCCC3)CC2)nc1Cl", "log10 of EC50": 2.33}
{"molecule": "CN(C)C(=O)c1ccc(N2CCC(CCCNC(=O)[C@@](O)(c3ccccc3)C(F)(F)F)CC2)nc1Cl", "log10 of EC50": 2.22}
{"molecule": "CC(C)[C@](O)(C(=O)N(C)CCCC1CCN(c2ccc(C(=O)N(C)C)c(Cl)n2)CC1)C(F)(F)F", "log10 of EC50": 1.91}
{"molecule": "CN(C)C(=O)c1ccc(N2CCC(CCCN(C)C(=O)[C@](O)(c3ccccc3)C(F)(F)F)CC2)nc1C#N", "log10 of EC50": 2.11}
{"molecule": "COc1cccc([C@@](O)(C(=O)N(C)CCCC2(F)CCN(c3ccc(C(=O)N(C)C)c(Cl)c3)CC2)C(F)(F)F)c1", "log10 of EC50": 2.34}
{"molecule": "CN(C)C(=O)c1ccc(N2CCC(CCCNC(=O)[C@](O)(c3ccccc3)C(F)(F)F)CC2)nc1Cl", "log10 of EC50": 2.02}

Challenge: What value of measured log10 of EC50 is listed for COc1cccc([C@@](O)(C(=O)N(C)CC[C@H]2CC23CCN(c2ccc(C(=O)N(C)C(C)C)c(Cl)c2)CC3)C(F)(F)F)c1 ?
Response given: 1.26

Challenge: Ok, now CN(C)C(=O)c1ccc(N2CCC3(CC2)C[C@@H]3CCN(C)C(=O)[C@](O)(c2ccccc2)C(F)(F)F)cc1Cl
Response given: 1.04

Challenge: Ok, now COc1cccc([C@@](O)(C(=O)N(C)CC[C@@H]2CC23CCN(c2ccc(C(=O)N(C)C)c(Cl)c2)CC3)C(F)(F)F)c1
Response given: 2.76

Challenge: Ok, now CN(C)C(=O)c1ccc(N2CCC([C@H]3C[C@H]3CN(C)C(=O)[C@](O)(c3cccc(C4CC4)c3)C(F)(F)F)CC2)nc1Cl
Response given: 1.20

Challenge: Ok, now COc1cccc([C@@](O)(C(=O)N(C)CCCC2CCN(c3ccc(C(=O)NC(C)C)c(Cl)n3)CC2)C(F)(F)F)c1
Response given: 2.84

Challenge: Ok, now CN(CC[C@@H]1CC12CCN(c1ccc(C(=O)NC3CC3)c(Cl)c1)CC2)C(=O)[C@](O)(c1ccccc1)C(F)(F)F
Response given: 3.01
